Source listed as the DeepSol protein solubility set.

Assay: soluble on expression in E. coli; label from the status in PepcDB or PDB records
measured_endpoint: soluble on expression in E. coli

Consider the worked cases shown below.
# seq, soluble on expression in E. coli
measured = [
    ("MSWTDERVELLKKMWGEGQSASQIAKELGGVTRNAVIGKVHRLGLSNRSSGAAPASTKAETKEKPAAATPRAEAKPKPAPRPEPLRAAPDPAPAPQPAEIKPIPARKQIIPAGQPLPPQPSANEISPEALAKVNEVEKKAKKLSLMELTERTCKWPVGDPATEDFWFCGLPVQQGKPYCEAHVGVAFQPMSSRRDRRRLEHHHHHH", "soluble"),
    ("MEINVQSDVGRKRNTNQDYANVFENQQHITFAVLADGMGGHQAGDVASQMAVNNLGESWSNASVDSAEKSAQWLIQAIQKENEKIYERGQSKPEYLGMGTTVVGAILLPDSFVLANVGDSRAYLVRDQHMLQLTEDHSLVNELVKSGEITREMAANHPRKNVLTRSLGMPGTVEVDVTNHEWLPNDYLLLCSDGLTNMVPETKILEILETSDPLESKLSQLVAQANEAGGLDNITVLVIHFDEQKEENQ", "not soluble"),
    ("MGSDKIHHHHHHMENFVRNSKLNIEKEIKRIEQQPIALLERIKQIIDVIQTSLTLLKRAVAEYQFQNPEEEIQFFKVWKPQISGLLMFYIRLYQIEKNRVGKSLSAQCKYLKMELENIQKSFLNNSFYDYYRAGQTELDNQYFIRENYDILSDVHCHLLDRDSSFTTLHDSSVAMILANSHLIEYVSDEIDSLSDKLHLKFTSIVDSKLLQWTDSKVALVEFIYAIYAGKCFNNGNTSLKDIAFCCEILFNIEIGDFYRIFLEIRNRKKSRTQFLDKLKDKIQKMMEELDR", "not soluble"),
    ("KELWKLRKLRNHFSIQEEAELLVHSDSVGKGKVFCEKVAEESGVLAENPGFDRWQNSINPAHSDAEILDMYDSMVVSQQDKLATKVVSQHATES", "not soluble"),
    ("MAKKVAICTLLYSRDYLPGALTLAYQLQKLLKHAVVEDEITLCLLIEKKLFGDEFKPQEIALIRSLFKEIIIIEPLKDQEKSIEKNKANLELLKRPELSHTLLKARLWELVQFDQVLFLDADTLPLNKEFFEILRLYPEQTRFQIAAVPDIGWPDMFNTGVLLLIPDLDMATSLQDFLIKTVSIDGADQGIFNQFFNPICNYSKEVLHKVSPLMEWIRLPFTYNVTMPNYGYQSSPAMNFFQQHIRLIHFIGTFKPWSRNTTDYDDHYYQLWRSTQRELYSECHLSNYFTHLQLGNIETETNFYHEPPCLQDLLNHGKRENQKHVDLDITSVDRNASQKSTAEKHDIEKPTSKPQSAFKFDWESTDYLDRVQRAFPKPDT", "soluble"),
]

Quick check: soluble on expression in E. coli of MPLTLNQLAELSGRASEHVLAEEVEETGTPAEEILARLRERLAVMRDSVRRGLASDAPSVAGLVGKNAKTLWEAPDPLQDPLLKRVQAYAMAVNEENARMGRIVAAPTAGSAGTLPGALLGVADHLGIPDEELLMPLVLAGGVAKMIGRVIHIAGASGGCQAEIGSSAAMAAAAVTELLGGTPEACAHAAALALQNTLGLVCDPVGGFVEVPCVMRNGFYAVHAVSAASMALAGIRSVIPPDEVVLAMAGIGRLLPLELKETGLGGLADTPTGRRLAEEALKKT ? soluble

###

Experiment: soluble on expression in E. coli; label from the status in PepcDB or PDB records
measured_endpoint: soluble on expression in E. coli

# seq, readout_value
records = [
    ("MKKERKPKIVIMGGGTGLSVLLRGLKQYPVDITAVVTIADDGGSSGRLRDELEIPPPGDIRNVLVALSDVEPLVEALFQHRFTTGDGLKGHALGNLLLAGMTSITGDFFHAITETSKVLNVRGRVLPAANQSAVLHAELEDGEIVTGESKIPYYGKKINRVFLTPEDVEPLHETLAEIKRADLLVFGPGSLYTSILPNLVVNKIGDAVLAAKAKKVYVCNVMTQAGETMGYTAFDHVQALHDHLGQPFINTAIVNNREIPCELRKSYEEEMSTPVVVDEERFVENNIDVIQEGLAKYDDHVVRHDTLKLASILYSLLMAGDPLEHHHHHH", "soluble"),
    ("MSLRRARIAFASIDYTGDAWRHIPSVIGEMFAGIGEHAWRRDAVLEIVGVEDEEAEGYLRRVAERRPVDGLLLRVANDIRGEHLDILERAGMPYVLIKRHIPGRRMNCVISDDVTGARMATSHLLELGHRRIGFVCGKPHLTLNRERLAGYREALEEHGVGFDEGLVRQEEHFTTEMGYRAVRSLLEAPSRPSAVFVASDTMAIGGYEAVWDLGLRIPDDVSIVGYDDIQAASALQPPLTTVRTSYYDFGRLAAQLLLDLIEGREVAPQRRVIHPTLVVRGSTREGHHHHHH", "soluble"),
]

###

Experiment: soluble on expression in E. coli; label from the status in PepcDB or PDB records

# seq, soluble on expression in E. coli
measured = [
    ("MSLAPQRCHRFQSSAYRSNQWRYRGRCDSIQFAVDRRVFIAGLGLYGSSSGKAEYSVKIELKRLGVVLAQNLTKFMSDGSSNTFPVWFEHPVQVEQDTFYTASAVLDGSELSYFGQEGMTEVQCGKVAFQFQCSSDSTNGTGVQGGQIPELIFYAEGHHHHHH", "soluble"),
    ("SMGSDDEEQEDPADYCKGGYHPVKIGDLFNGRYHVIRKLGWGHFSTVWLCWDMQGKRFVAMKVVKSAQHYTETALDEIKLLKCVRESDPSDPNKDMVVQLIDDFKISGMNGIHVCMVFEVLGHHLLKWIIKSNYQGLPVRCVKSIIRQVLQGLDYLHSKCKIIHTDIKPENILMCVDDAYVRRMAAEATEWQKAGAPPPSGSAVSTAPAADLLVNPLDPRNADKIRVKIADLGNACWVHKHFTEDIQTRQYRSIEVLIGAGYSTPADIWSTACMAFELATGDYLFEPHSGEDYSRDEDHIAHIIELLGSIPRHFALSGKYSREFFNRRGELRHITKLKPWSLFDVLVEKYGWPHEDAAQFTDFLIPMLEMVPEKRASAGECLRHPWLNS", "soluble"),
]

###

Test: soluble on expression in E. coli; label from the status in PepcDB or PDB records
measured_endpoint: soluble on expression in E. coli

Consider the worked cases shown below.
# seq, measured_endpoint, readout_value
records = [
    ("MSNTEERCDLSSSRDCPERHEHLLQRVTARAAEIGGGITVSRLMPSRQRRMIGAWCFLDHAGPAEFEPGGGLAVGPHPHIGLQTFTWMIQGEALHRDSLGNVQVIRPGQVNLMTAGHGIAHTEESLPDERHAHAAQLWIALPYEQRDIAPAFDHHPDLPRWQEQGVTFTLLAGALAGRQAPCRLYSPLLGADLACHDASTLQLTLDPHFEYGLLPLEGGLEVGGEHFAVNELAYLGDGRDGLQLQLDPGARVLLLGGAPFGAEIFMWWNFVGHSKGEIARAQKAWEEGDARFGRLDALEGPRLSAPPIPWKIDAE", "soluble on expression in E. coli", "not soluble"),
    ("MGSDKIHHHHHHMQLEELINQHYSKLNDNDFHILKYILNHKHTCYHLGIDALAKACSVSRSSILRLAQKLGFSGYSEFRVFLKWEDQPEEGESMSFEKLLDDIEANLKFLRTKDMTDMCQLIDAADRIFVYGSGNAQKICARDLQRMFIPRHRYLILIEDTNEFNLMRDDFKVNDLFIIISLSGETPELIPQARMLSAKGIPFISITNLKNNVLAQLTPHNLYATSKPVTLSDRTEIVAFAPFFLVGEALFRAYVDYKEAEKNDNE", "soluble on expression in E. coli", "not soluble"),
    ("MRARSDAGGQSVKSRTSNRSRSSRRSRVRSSISALVDNPQARPRELPVLCGWPVVRVEPVCEFVPEPVCGQAEVLGEPAAAHRVTSARRSPSTTVCSRSQKASAVVISSVSSVARVRRASVSSVDATTA", "soluble on expression in E. coli", "not soluble"),
    ("SNAMRSAQVYRWQIPMDAGVVLRDRRLKTRDGLYVCLRDGEREGWGEISPLPGFSQETWEEAQTALLTWVNDWLQGSEGLPEMPSVAFGASCALAELTGVLPEAADYRAAPLCTGDPDDLVLRLADMPGEKIAKVKVGLYEAVRDGMVVNLLLEAIPDLHLRLDANRAWTPLKAQQFAKYVNPDYRARIAFLEEPCKTRDDSRAFARETGIAIAWDESLREADFTFEAEEGVRAVVIKPTLTGSLDKVREQVAAAHALGLTAVISSSIESSLGLTQLARIAAWLTPGTLPGLDTLHLMQAQQIRPWPGSALPCLKREELERLL", "soluble on expression in E. coli", "soluble"),
    ("MGSIIFLEDRAFQGRIYGCTTDCPNLQPYFSRCNSIVVQSGCWMIYERPNYQGHQYFLRRGEYPDYQQWMGLSDSIRSCCLIPPHSGAYRMKIYDRDELRGQMSELTDDCLSVQDRFHLTEIHSLNVLEGSWILYEMPNYRGRQYLLRPGEYRRFLDWGAPNAKVGSLRRVMDLYLEHHHHHH", "soluble on expression in E. coli", "soluble"),
]

Quick one: give me soluble on expression in E. coli for each item below, same order please.
1. MAILITGGAGYIGSHTCVELLNNNYKIIVVDNLSNSSIESLNRVKEITGKQFEFYKENVLNREKMNEIFLENNIEAVIHFAGFKAVGESTTTPLAYYYNNIISAIVLCDVMQKHNVKNFIFSSSATVYGIPKTLPITEEFPLSVTNPYGQTKLMIEQIMRDVAKADDEWSIALLRYFNPFGAHQSGRIGEDPNGIPNNLMPYVTQVAVGKLKELNIFGNDYPTKDGTGVRDYIHVVDLAKGHVKALEKVLKTKGIEAYNLGTGKGYSVLEMVKAFEKVSGKKIPYKVIGRRPGDVAICFADVSKAKRELGWEAEYGLEEMCVDSWRWQVNNKNGYQMI
2. MSLRNIKWAILGPGTIARDFAKAISEVDNNIYAVASRNIERAKKFANEYKAEKFYGDYDEMLRDENIDVVYISTPHCNHYEYIIKSLENNKHVFCEKAITVNGNQLKEIVDLANKKNLIVREAMTIYHMPLYKKLRELVDEGKIGKVKMIQVSFGSLKEYDVNNRFFSKDLAGGALLDIGTYALSFTRYFLSSQPEEILTTVKKFETGVDEQSGIILKNAEDEMAVISLTMRAKQPKRGVVAGEKAYITVENFPRADKATITYPDGSVEVVEAGETDRALVYEVQDMKACILNKDTDYTLQLSLGVMNIMDEVRSQWGIRYPFEEGHHHHHH
3. MSLDKKPVTTRKKVKVTGTETYINQSTGEIKEMQVIDIEERDFNFHKVWLEHIIHSMDLIGNQKTRLAFWLINNLNRDNVLIMTQRKIAEKTGISLETVRQTMKALMESGFLIKINSGAYCVNPDAVFKGGKTDRLNVLIQYRKSEQENTKTSEPTSEKDEPSLFNNEQLKAMEGHHHHHH
4. MSLKIDIHPLTHDPTSAWKELSKSQRVIKINTKPPAVDVPSNKVRVVCMSDTHSLTHHIKFDIPDGDIFIHAGDFTRCGKLDEVVDFNEWLKKLPHKHKLVIAGNHELSFDHTFTHPFQNASACCKKTGSTLLDEIPTLGNSKESLAEAVKTENIRQYLSSCTYLQDECVELYGLKIYGTPWQPEFCKWAFNVKRGQACLEKWEQIPENVDILVTHTPPVGHGDLCCSGVRAGCVELLATVQQRVKPKYHVFGHVHEGYGITSDGRIIFVNASTCDINYLPNNQPIVFDVTLPKGRTKDEGHHHHHH
5. MGRKWNNIKEKKASKDANTSRIYAKFGREIYVAAKQGEPDPESNQALKVVLERAKTYSVPKNIIERAIEKAKGGAEENYDELRYEGFGPNGSMIIVDALTNNVNRTAPEVRAAFGKNGGNMGVSGSVAYMFDATAVIVVEGKTADEALEILMEADVDVRDILEEDDSAKSCYAEPDQFHAVQEAFKNAGVEEFTVAELQMLAQSEVTLPDDAKEQFEKLIDALEDLEDVQQVYHNVDLGELEHHHHHH
6. MQYTLKQISEHLNAKVINEPSGEVIITGLTYAEQAKENDLTLIDKQEHIKLWQNSKATAAIVSKKISKELAQVNDKPLIVVNNADLAMAKILELFSVPYPEQNGIHEKAIIDPTAKIGKNVSIGPSAYIGKNVEIGDNTIIYANVCIYNDAKVGTNCIIWPSVIIRDRTIIGHFCRLCSNCSIGSDGFGYRPSEDGRTIVRIPHIGNVVIGSFVDIGSNTCINNAKYGSTIIGDYTKIDNLVQIGHNVIIGKGCMICGQAGISGSVTIGDGVIIAGNAGIKDHTNIGSDARIGGKAGVMWDVPAGESHMGYPAYKDSELAKQWIAIRKLPETMKKLKAIAKSLNIDL

not soluble
soluble
soluble
soluble
soluble
not soluble
